Reference source for all entries: paper PMC5748837

# Test system: INTS3C (human, UniProt Q68E01-2 514-1042)
# Sequence (Q68E01 515-1043): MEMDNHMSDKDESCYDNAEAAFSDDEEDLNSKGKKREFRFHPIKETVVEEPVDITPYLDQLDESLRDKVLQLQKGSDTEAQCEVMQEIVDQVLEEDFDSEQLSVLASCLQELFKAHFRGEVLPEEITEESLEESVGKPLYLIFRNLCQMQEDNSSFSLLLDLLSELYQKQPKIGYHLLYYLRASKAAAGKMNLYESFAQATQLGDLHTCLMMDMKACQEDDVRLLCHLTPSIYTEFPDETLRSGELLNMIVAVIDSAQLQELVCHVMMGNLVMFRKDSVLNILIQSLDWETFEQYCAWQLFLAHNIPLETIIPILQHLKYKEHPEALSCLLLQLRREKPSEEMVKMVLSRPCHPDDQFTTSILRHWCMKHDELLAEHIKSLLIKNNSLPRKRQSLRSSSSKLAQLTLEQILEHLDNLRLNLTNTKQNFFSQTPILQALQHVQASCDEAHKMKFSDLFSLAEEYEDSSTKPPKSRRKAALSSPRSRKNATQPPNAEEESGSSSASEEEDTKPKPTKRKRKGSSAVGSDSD
# Assay name: EMSA; EMSA: 20 mM HEPES pH 7.3, 100 mM KCl, 1 mM MgCl2, 1 mg/ml BSA, 1 mM DTT, 6% glycerol, 0.5 nM 32P substrate, 30 min on ice; 5% native PAGE, 1x TBE, 4°C
# Measurement setup: protein: recombinant; tags: His (pET28a); chain copies: 2; label: 5'-32P
Measured quantity: pKd
// field semantics: pKd = negative decimal log of concentration (mol/L)

Give its pKd value. Item: UUUUUUUUUUUUUUUUUUUUUUUUUUUUUU (ssRNA) [rU30]
5.92
